- study.system: T1, human somatostatin receptor protein subtype 3 (SSTR3) (human, UniProt P32745 1-418)
- T1 construct: whole, on cells; also called cell line SSTR3-15-19
- T1 sequence (P32745 whole entry): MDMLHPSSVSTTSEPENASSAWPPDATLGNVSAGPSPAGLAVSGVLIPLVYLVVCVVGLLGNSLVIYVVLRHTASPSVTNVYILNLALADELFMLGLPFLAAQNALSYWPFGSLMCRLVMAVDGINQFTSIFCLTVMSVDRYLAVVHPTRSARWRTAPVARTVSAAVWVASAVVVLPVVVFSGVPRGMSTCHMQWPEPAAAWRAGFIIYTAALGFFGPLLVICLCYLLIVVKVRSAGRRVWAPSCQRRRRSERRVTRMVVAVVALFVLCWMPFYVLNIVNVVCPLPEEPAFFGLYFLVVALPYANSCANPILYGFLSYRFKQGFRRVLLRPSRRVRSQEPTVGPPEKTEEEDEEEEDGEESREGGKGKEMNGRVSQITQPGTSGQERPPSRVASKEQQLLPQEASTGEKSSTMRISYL
- experimental.protocol: displacement of 200 pM [125I]-somatostatin from membrane fraction of CHO cells expressing the human receptor; filter binding, Hill plot
Bridges are numbered along the chain shown (N, C = ends). Where no end group is shown, it is not given here.
assay.metric: IC50 (nM)

>  <binder>
MPCRNFFWKTFSSCK (disulfide 3-14) [deletion type human peptide hCS-15]

>  <scale.unit>
nM

>  <IC50>
0.9

$$$$
>  <binder>
DRMPCRNFFWKTFSSCK (disulfide 5-16) [human peptide hCS-17]

>  <scale.unit>
nM

>  <IC50>
0.6

$$$$
>  <binder>
CRNFFWKTFSSCK (disulfide 1-12) [deletion type human peptide hCS-13]

>  <scale.unit>
nM

>  <IC50>
0.7

$$$$
